Test system: CYP3A
Assay: CYP3A induction measured as increase in rate of ethosuximide clearance after 8-day pretreatment
Type: in vivo, rats
Conditions: 8-day pretreatment, rats
METRIC: increase in ethosuximide clearance

molecule="Cc1nccn1C(c1ccccc1)(c1ccccc1)c1ccccc1 [XIV]" recorded_value="> 2 fold"
molecule="Clc1cccc(C(c2ccccc2)(c2ccccc2)n2ccnc2)c1 [XXXI]" recorded_value="> 3 fold"
molecule="Fc1cccc(C(c2ccccc2)(c2ccccc2)n2ccnc2)c1 [XXXVIII]" recorded_value="> 3 fold"
molecule="Clc1ccc(C(c2ccccc2)(c2ccccc2)n2ccnc2)cc1 [XXXIII]" recorded_value="> 3 fold"
molecule="c1ccc(Cc2ccncc2)cc1 [XVI]" recorded_value="> 2 fold"
